assay_overview: Metabolic stability in pooled human liver microsomes
study_conditions: human, microsomes, pH 7.4
Counter-ions that a name gives are not always drawn.
Form field: half-life at 1 μM (one value per entry).
reported_endpoint: half-life at 1 μM (min)

compound | unit_abbreviation | observed
[2H]C([2H])([2H])OC([2H])([2H])COc1cc2ncnc(Nc3cccc(C#C)c3)c2cc1OCC([2H])([2H])OC([2H])([2H])[2H] | min | 83.5
[2H]C([2H])([2H])OCCOc1cc2ncnc(Nc3cccc(C#C)c3)c2cc1OCCOC([2H])([2H])[2H] [Compound 105, hydrochloride] | min | 62.3
C#Cc1cccc(Nc2ncnc3cc(OCCOC)c(OCCOC)cc23)c1 [erlotinib, reference compound] | min | 57.8
[2H]C#Cc1cccc(Nc2ncnc3cc(OCCOC)c(OCCOC)cc23)c1 [Compound 110, hydrochloride] | min | 42.7
[2H]C([2H])(COc1cc2ncnc(Nc3cccc(C#C)c3)c2cc1OCC([2H])([2H])OC)OC | min | 43.8
